Assay: Dissociation constant, pKa of the compound
Type: physicochemical
Everything with pKa lower than 4 is F; everything else, including exactly 4, is T.

                                   compound  category
0  O=C(c1cccs1)N1CCCC1c1ccc(-c2cccc(Cl)c2)nc1 (centres undefined)         F
1  O=C(c1cnccn1)N1CCCC1c1ccc(-c2cccc(Cl)c2)nc1 (centres undefined)         F
2  Cc1cc(-c2cccc(Cl)c2)ncc1C1CCCN1C(=O)c1cncs1 (centres undefined)         T
3  O=C(C1CCC1)N1CCCC1c1cnc(-c2cccc(Cl)c2)cc1O (centres undefined)         F
4  O=C(c1cncs1)N1CCCC1c1ccc(-c2cccc(Cl)c2)nc1 (centres undefined)         F
5  Cc1cc(C(=O)N2CCCC2c2cnc(-c3cccc(Cl)c3)cc2C)no1 (centres undefined)         T
6  Cc1cc(C(=O)N2CCCC2c2ccc(-c3cccc(Cl)c3)nc2)no1 (centres undefined)         F
7  COc1cc(-c2cccc(Cl)c2)ncc1C1CCCN1C(=O)c1cncs1 (centres undefined)         T
